Reference for the values: PubChem BioAssay (NCI)

- System: 786-0 renal
- experimental-details: NCI tumour cell line growth inhibition, 48 h
measured-quantity: GI50

**Query** Using the record for CC/C=C/[C@@H]1C=C[C@@H]2CCC[C@H]2[C@@H]1CC[C@H](O)[C@H](C)N , report its GI50.
**Result** 1720 nM

**Query** Using the record for COc1cc([C@@H]2c3cc4c(cc3[C@H](OC3OC5COC(c6ccccc6)OC5C(O)C3O)[C@H]3COC(=O)[C@H]23)OCO4)cc(OC)c1OC (stereo not given in full) , report its GI50.
**Result** 594 nM

**Query** Using the record for COc1ccc(C(=O)CC2(O)C(=O)Nc3c(Cl)ccc(Cl)c32)cc1 (stereo not given) , report its GI50.
**Result** 6420 nM

**Query** Using the record for C#Cc1cccc(NC(=O)Nc2ccccc2NC(=O)CCl)c1 , report its GI50.
**Result** 29700 nM

**Query** Using the record for COc1ccccc1/C=C1\COc2ccc(O)c(O)c2C1=O , report its GI50.
**Result** 2200 nM

**Query** Using the record for COc1ccc(NC(=O)c2ccc(NC3=C(Cl)C(=O)N(Cc4ccccc4)C3=O)cc2)cc1 , report its GI50.
**Result** 2890 nM

**Query** Using the record for O=C(CCCCCCc1nc2ccc(Br)cc2[nH]1)NO , report its GI50.
**Result** 1030 nM

**Query** Using the record for COc1ccc(CCNc2nc3ccccc3c3[nH]c4ccccc4c23)cc1OC , report its GI50.
**Result** 1700 nM

**Query** Using the record for COc1ccc(/C=C2/SC(=Nc3c(C)nn(-c4ccccc4)c3N)NC2=O)cc1 , report its GI50.
**Result** 6940 nM

**Query** Using the record for CCOC(=O)c1cc2c(n1Cc1cccc(OC)c1)-c1oncc1CC2 , report its GI50.
**Result** 4290 nM
